Entry source: PubChem BioAssay (NCI)

- Test system: A498 renal
- Protocol description: NCI-60 one-dose screen, 48 h
- Protocol conditions: 10 µM unless noted
The panel holds about 83,000 compounds, 20% with a hit somewhere; the sample as a whole holds those more often. Activity calls are given as the source filed them. The calls were made as follows: active = growth percent below 10; inactive = the rest.
Lab note: assign the record to one of 1.0 (active), 0.0 (inactive)

Examples with answers:
[[record]]
structure_as_smiles = "CCOC(=O)CO"
measured_on = "A498 renal"
class_label = 0.0

[[record]]
structure_as_smiles = "COc1ccc(Nc2cc(Cl)ccc2C(=O)O)cn1"
measured_on = "A498 renal"
class_label = 0.0

[[record]]
structure_as_smiles = "Nc1ccc(F)cc1F"
measured_on = "A498 renal"
class_label = 0.0

[[record]]
structure_as_smiles = "Nc1nnc2cc(F)ccc2n1"
measured_on = "A498 renal"
class_label = 0.0

[[record]]
structure_as_smiles = "Oc1cc2ccccc2c(-c2c(O)c(O)cc3ccccc23)c1O"
measured_on = "A498 renal"
class_label = 0.0


What outcome does the record of this test show for COC(=O)c1ccccc1C(=O)c1c(C)cc(C)cc1C ?
0.0

Repeat with Clc1cccc(Cl)c1CSc1nc2ccccc2n2cccc12
0.0

Repeat with Cc1ccc(NC(=S)N2CCOCC2)cc1C
0.0

Repeat with O=[N+]([O-])c1ccc2[nH]c(=S)n(/C=C(/c3ccc(Cl)cc3Cl)S(=O)(=O)Cc3ccc(Cl)cc3Cl)c2c1
0.0

Repeat with c1ccc2c(NCCCN3CCN(CCCNc4c5ccccc5nc5ccccc45)CC3)c3ccccc3nc2c1
1.0

====

Known growth of a selection of molecules
- System: MALME-3M melanoma
- Protocol description: NCI-60 one-dose screen, 48 h (100 = growth as untreated, 0 = no growth, -100 = all killed)
- Protocol conditions: 10 µM unless noted
Compounds without any hit were thinned out: in the full panel of roughly 83,000, 20% have a hit.
Only the number, expressed in %, is required.

Previously resolved entries follow.
[[record]]
molecule = "CN1C(=O)NC(c2ccc(Cl)cc2)(c2ccc(Cl)cc2)C1=O"
measured_property = "growth"
value_unit = "%"
test_result = 108

[[record]]
molecule = "CCOC(=O)N[C@H]1CCc2cc(OC)c(OC)c(OC)c2-c2ccc(SC)c(=O)cc21"
measured_property = "growth"
value_unit = "%"
test_result = 51.4

[[record]]
molecule = "CCCCCCCCCCCCCCCCOc1ccccc1NC(=O)CC(C)=O"
measured_property = "growth"
value_unit = "%"
test_result = 117

[[record]]
molecule = "COc1cc(CC#N)c([N+](=O)[O-])cc1OC"
measured_property = "growth"
value_unit = "%"
test_result = 111

[[record]]
molecule = "COC(=O)c1ccc([N+](=O)[O-])c(C)c1"
measured_property = "growth"
value_unit = "%"
test_result = 96.9

[[record]]
molecule = "Cc1cc2c3ccc(C)[n+](C)c3ccc2n1C"
measured_property = "growth"
value_unit = "%"
test_result = 46.9

[[record]]
molecule = "CC12CCC3c4ccc(O)cc4CCC3C1CCC2=O (configuration not stated)"
measured_property = "growth"
value_unit = "%"
test_result = 113

[[record]]
molecule = "CC(=O)NC(O)C(Cl)Cl (configuration not stated)"
measured_property = "growth"
value_unit = "%"
test_result = 96.7

[[record]]
molecule = "CCOc1ccccc1NC(=O)CCl"
measured_property = "growth"
value_unit = "%"
test_result = 92.2

[[record]]
molecule = "CCOC(=O)CO"
measured_property = "growth"
value_unit = "%"
test_result = 87


GET /values?readout=growth&system=MALME-3M melanoma&item= C=C1SC(=Nc2c(C)cccc2C)N(c2nc(Cl)nc(Cl)n2)C12CCCCC2
90.3

Repeat with O=C(CCCl)OCCOc1ccccc1
97.7

Repeat with Cc1cccc(-[n+]2noc(N)n2)c1
86.4

Repeat with COc1cc(C(=O)NC(=S)NCc2ccncc2)cc(OC)c1OC
104

Repeat with CCN(CC)CCOC(=O)Nc1c(C(C)C)cccc1C(C)C
98.2

Repeat with COc1cc(C(=O)N2CCN(c3ccccc3)CC2)c2ccccc2n1
54.6

Repeat with CCOC(=O)c1ccc(Nc2sc(C(=O)c3ccc(Br)cc3)c(N)c2C#N)cc1
31.8

====

- System: UACC-62 melanoma
- Protocol description: NCI-60 one-dose screen, 48 h
- Protocol conditions: 10 µM unless noted
- Protocol: Growth inhibition of the UACC-62 human tumor cell line is measured as a screen for anti-cancer activity. Cells are grown in 96 well plates and exposed to the test compound for 48 hours. Compounds are tested at a single concentration, which is 10^-5 M for most compounds. The reported endpoint is percent growth (GI% or GIPRCNT), where numbers from 0 - 100% represent growth inhibition, and numbers from -100% - 0 represent cell death. For example, a value of 40 represents 60% growth inhibition. […]
About 83,000 compounds went through this panel and 20% of them were active in at least one assay; those are over-represented in the sample as a whole. Activity calls are given as the source filed them. The calls were made as follows: active = growth percent below 10; inactive = the rest.
Lab note: assign the record to one of YES for active, NO for inactive

What outcome does the record of this test show for CCOC(=O)CO ?
NO

====

- Tested on: SK-MEL-5 melanoma
- Protocol description: NCI-60 one-dose screen, 48 h (100 = growth as untreated, 0 = no growth, -100 = all killed)
- Protocol conditions: 10 µM unless noted
The panel holds about 83,000 compounds, 20% with a hit somewhere; the sample as a whole holds those more often.
Measured property: growth (%)
Only the number, expressed in %, is required.

[[record]]
molecule = "OC1Cc2ccccc2C1"
value_unit = "%"
test_result = 101

[[record]]
molecule = "ClCC(Cl)[C@@H]1CC2C=CC1C2 (stereo not given in full)"
value_unit = "%"
test_result = 99.1

[[record]]
molecule = "Cc1ccc2nc(N)nnc2c1"
value_unit = "%"
test_result = 108

[[record]]
molecule = "C=C1C(=O)C2CCN1CC2"
value_unit = "%"
test_result = 104

[[record]]
molecule = "O=C1CSc2ccccc2N1"
value_unit = "%"
test_result = 109

[[record]]
molecule = "CN(C)c1ccc(O)c2c1CC1CC3C(N(C)C)C(=O)C(C(N)=O)=C(O)C3(O)C(=O)C1=C2O (stereo not given)"
value_unit = "%"
test_result = 25.6


Which measured growth value corresponds to O=C(O)CCCCCNC(=O)OCc1ccccc1 ?
111

Repeat with CCN1CCCC(N2c3ccccc3Sc3ccccc32)C1 (stereo not given)
97

Repeat with COc1ccc2c(ccc[n+]2C)c1
103

====

- Test system: SNB-75 CNS
- Protocol description: NCI-60 one-dose screen, 48 h
- Protocol conditions: 10 µM unless noted
The panel holds about 83,000 compounds, 20% with a hit somewhere; the sample as a whole holds those more often. Calls of active or inactive are those of the source. Rule for the calls: active = growth percent below 10; inactive = the rest.
Lab note: assign the record to one of 1 (active), 0 (inactive)

[[record]]
molecule = "CN(C)CCOC(=O)Nc1ccc(Cc2ccc(NC(=O)OCCN(C)C)cc2)cc1"
class_label = 0

[[record]]
molecule = "CN(C(=S)S(=O)(=O)C12CC3CC(CC(C3)C1)C2)c1ccccc1"
class_label = 0

[[record]]
molecule = "Cc1[nH]nc(C(N)=O)c1[N+](=O)[O-]"
class_label = 0


What outcome does the record of this test show for C1CCc2onc(-c3noc4c3CCCCC4)c2CC1 ?
0

Repeat with CC(=O)c1cc(O)ccc1O
0

====

- Tested on: SNB-75 CNS
- Protocol description: NCI-60 one-dose screen, 48 h (100 = growth as untreated, 0 = no growth, -100 = all killed)
- Protocol conditions: 10 µM unless noted
Compounds without any hit were thinned out: in the full panel of roughly 83,000, 20% have a hit.
# binarize growth: threshold 80% inclusive, high side satisfied, low side not satisfied

Examples with answers:
[[record]]
molecule = "NNC(=O)CCCCl"
measured_on = "SNB-75 CNS"
class_label = "satisfied"

[[record]]
molecule = "CCC(=O)C1C(=O)c2ccccc2C1=O"
measured_on = "SNB-75 CNS"
class_label = "satisfied"

[[record]]
molecule = "COc1c(CNC(=O)CCl)cc2[nH]c(C)cc2c1CNC(=O)CCl"
measured_on = "SNB-75 CNS"
class_label = "not satisfied"

[[record]]
molecule = "CCC(=O)Oc1c(C)cc(O)c2ccccc12"
measured_on = "SNB-75 CNS"
class_label = "satisfied"


Shifting focus to the molecule that follows.
Tell me whether growth is at least 80% here: CC(=O)NC(CCc1ccc(Cl)c(Cl)c1)c1cccc(O)c(=O)c1 (stereo unspecified)
not satisfied

====

Known growth of a selection of compounds
- System: DU-145 prostate
- Protocol description: NCI-60 one-dose screen, 48 h (100 = growth as untreated, 0 = no growth, -100 = all killed)
- Protocol conditions: 10 µM unless noted
Compounds without any hit were thinned out: in the full panel of roughly 83,000, 20% have a hit. Calls of active or inactive are those of the source. How the source made its calls: active means growth percent below 10; inactive means the rest.

[[record]]
compound = "CCCC(=O)c1cccs1"
test_result = "109% (inactive)"

[[record]]
compound = "CSCC[C@@H]1C(=O)N(C)[C@H](C(C)(C)C)N1C(=O)c1ccccc1"
test_result = "106% (inactive)"

[[record]]
compound = "O=Cc1ccc(O)c(O)c1"
test_result = "94.9% (inactive)"

[[record]]
compound = "CC12CCC3c4ccc(O)cc4CCC3C1CCC2=O (stereo not drawn)"
test_result = "112% (inactive)"

[[record]]
compound = "Cn1c(=O)c2[nH]c(CC(=O)O)nc2n(C)c1=O"
test_result = "108% (inactive)"


Which measured growth value corresponds to OC(CBr)CCBr (stereo not drawn) ?
110% (inactive)

Repeat with Oc1cc2ccccc2c(-c2c(O)c(O)cc3ccccc23)c1O
47.3% (inactive)

Repeat with CC(=O)OC/C(C)=C\CC(C)COC(C)=O (stereo not drawn)
114% (inactive)

Repeat with C[n+]1c(/C=C\C=C\N2CCCCC2)sc2ccccc21
23.1% (inactive)

Repeat with COc1ccc(C(=O)/C(=N/Nc2ccccc2)c2ccc(OC)cc2)cc1
115% (inactive)

Repeat with Nc1nc(Cl)cc(Cl)n1
108% (inactive)

Repeat with CC(=O)Nc1ccc(/C=C2\SC(=S)N(/C=C(\C(C)=O)C(N)=O)C2=O)cc1
106% (inactive)

Repeat with Cc1c(-c2ccc(C3CCCCC3)cc2)nc2ccc(F)cc2c1C(=O)O
39.3% (inactive)
